Listing: AC50 of selected compounds
- system: Gamma-aminobutyric acid receptor subunit alpha-1 (Rattus norvegicus, UniProt P62813); also: assay procedure not described here
- Sequence (P62813 whole entry): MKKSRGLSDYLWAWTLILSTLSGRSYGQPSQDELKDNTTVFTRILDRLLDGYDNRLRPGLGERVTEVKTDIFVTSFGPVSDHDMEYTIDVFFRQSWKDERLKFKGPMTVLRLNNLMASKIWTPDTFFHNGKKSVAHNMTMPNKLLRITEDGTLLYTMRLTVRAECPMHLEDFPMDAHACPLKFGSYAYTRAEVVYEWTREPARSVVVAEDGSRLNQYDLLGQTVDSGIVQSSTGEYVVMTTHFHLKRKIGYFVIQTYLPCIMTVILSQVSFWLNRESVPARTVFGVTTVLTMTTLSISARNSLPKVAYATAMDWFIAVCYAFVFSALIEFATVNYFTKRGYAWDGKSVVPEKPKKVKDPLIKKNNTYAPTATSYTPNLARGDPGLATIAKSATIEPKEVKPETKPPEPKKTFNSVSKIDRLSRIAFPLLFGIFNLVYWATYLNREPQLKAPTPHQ
- Assay type: functional

{"compound": "COc1c(N2CCNC(C)C2)c(F)cc2c(=O)c(C(=O)O)cn(C3CC3)c12 (stereo not drawn)", "AC50": "> 10 µM"}
{"compound": "C#C[C@]1(O)CC[C@H]2[C@@H]3CCC4=CCCC[C@@H]4[C@H]3CC[C@@]21C", "AC50": "> 30 µM"}
{"compound": "[H]/N=C(/N)c1ccc(NCc2nc3cc(C(=O)N(CCC(=O)O)c4ccccn4)ccc3n2C)cc1", "AC50": "> 30 µM"}
{"compound": "Cc1c(O)c(=O)ccn1C", "AC50": "> 30 µM"}
{"compound": "CN[C@@H]1[C@H](O)[C@H](NC)[C@H]2O[C@@]3(O)C(=O)C[C@@H](C)O[C@H]3O[C@@H]2[C@H]1O", "AC50": "> 10 µM"}
{"compound": "NS(=O)(=O)c1cc(Cl)c(Cl)c(S(N)(=O)=O)c1 [DICHLORPHENAMIDE]", "AC50": "> 10 µM"}
{"compound": "CC(C(O)c1ccc(O)cc1)N1CCC(Cc2ccccc2)CC1 (stereo not drawn)", "AC50": "> 30 µM"}
{"compound": "CCCS(=O)(=O)Nc1ccc(F)c(C(=O)c2c[nH]c3ncc(-c4ccc(Cl)cc4)cc23)c1F", "AC50": "> 30 µM"}
{"compound": "CN1C(=O)CC(C)(c2ccccc2)C1=O (stereo not drawn) [METHSUXIMIDE]", "AC50": "> 10 µM"}
{"compound": "C[C@H]1C[C@@H]2[C@H]([C@@H](O)C[C@@]3(C)[C@H]2CC[C@]3(O)C(=O)CO)[C@@]2(C)C=CC(=O)C=C12", "AC50": "> 10 µM"}
{"compound": "NS(=O)(=O)c1cc2c(cc1Cl)NC(CC1CCCC1)NS2(=O)=O (stereo not drawn) [CYCLOPENTHIAZIDE]", "AC50": "> 30 µM"}
{"compound": "O=C(Nc1ccccc1)OCC(CN1CCCCC1)OC(=O)Nc1ccccc1 (stereo not drawn)", "AC50": "> 10 µM"}
{"compound": "O=C(OCCN1CCOCC1)c1cccnc1Nc1cccc(C(F)(F)F)c1 [MORNIFLUMATE]", "AC50": "> 30 µM"}
{"compound": "NC1=NC(=O)C(c2ccccc2)O1 (stereo not drawn)", "AC50": "> 10 µM"}
{"compound": "COC(=O)N[C@H](C(=O)N1CCC[C@H]1c1nc(-c2ccc(-c3ccc(-c4c[nH]c([C@@H]5CCCN5C(=O)[C@@H](NC(=O)OC)C(C)C)n4)cc3)cc2)c[nH]1)C(C)C", "AC50": "> 30 µM"}
{"compound": "CN1C(=O)CC(c2ccccc2)C1=O (stereo not drawn) [PHENSUXIMIDE]", "AC50": "> 10 µM"}
{"compound": "Nc1ccc(/N=N/c2ccccc2)c(N)n1", "AC50": "> 30 µM"}
{"compound": "CCOC(=O)[C@H](CCc1ccccc1)N[C@@H](C)C(=O)N1CCC[C@H]1C(=O)O", "AC50": "> 10 µM"}
